Origin of the recorded values: patent US7998978B2

Reported Ki values, JNK1α1 (Homo sapiens, UniProt P45983).
assay-metric: Ki (nM)

| compound | experimental-target | unit-of-measure | Ki |
| --- | --- | --- | --- |
| O[C@H]1CC[C@H](Nc2ncc3cccc(O[C@@H]4CCOC4)c3n2)CC1 [Example 167] | JNK1α1 (Homo sapiens, UniProt P45983) | nM | 644 |

a: c1cc2cnc(NC3CCOCC3)nc2cc1O[C@H]1CCOC1 [Example 163]
b: CC(C)(CN1CCOCC1)NC(=O)c1cccc2cnc(N[C@H]3CC[C@H](O)CC3)nc12 [Example 105]
Min Ki? a | b Lab log: write the label of the selected item as the result.
b
